tested on: MDA-MB-468; assay: Antiproliferative activity against human MDA-MB-468 cells assessed as growth inhibition after 48 hrs by sulforhodamine B assay; assay type: functional; settings: MDA-MB-468, 48 h, read-out: LC50 (the source's name)
observable: CC50 (µM)
Give a bare numeral; the unit µM is implied.

>>> observed("CNC(=O)c1cc(Oc2ccc(NC(=O)Nc3ccc(Cl)c(C(F)(F)F)c3)cc2)ccn1")
39.8

Let us move to another entry and its CC50.
Requested field: CC50. Item: `CNC(=O)c1cc(Oc2ccc3nc(NC(=O)Nc4cc(C(F)(F)F)cc(C(F)(F)F)c4)sc3c2)ccn1` 6.08

----------
experiment: Antiproliferative activity against human SNB19 cells assessed as growth inhibition after 48 hrs by sulforhodamine B assay; type: functional; conditions: SNB-19, 48 h
The entries below are paired with their reported LC50 (50% lethal concentration).

>>> observed("CNC(=O)c1cc(Oc2ccc3nc(NC(=O)Nc4ccc(Cl)c(Cl)c4)sc3c2)ccn1")
"7.95 µM"
>>> observed("CNC(=O)c1cc(Oc2ccc3nc(NC(=O)Nc4cc(C(F)(F)F)cc(C(F)(F)F)c4)sc3c2)ccn1")
"> 100 µM"
>>> observed("CNC(=O)c1cc(Oc2ccc3nc(NC(=O)c4cc(C(F)(F)F)cc(C(F)(F)F)c4)sc3c2)ccn1")
"> 100 µM"

Requested field: LC50 (50% lethal concentration). Item: `CNC(=O)c1cc(Oc2ccc3nc(NC(=O)Nc4ccc(Cl)c(C(F)(F)F)c4)sc3c2)ccn1` > 100 µM

----------
test system: NCI-H460; assay: Antiproliferative activity against human NCI-H460 cells assessed as cell growth at 10^-5 M after 48 hrs by sulforhodamine B assay; format: functional; conditions: NCI-H460, 48 h, read-out: Activity
Reported growth at 10 µM maps to class as: Low (below 10%), Mid (10% to below 60%), High (60% or more)

Example cases with answers are listed next.
>>> cat("CNC(=O)c1cc(Oc2ccc3nc(NC(=O)Nc4ccc(Cl)c(C(F)(F)F)c4)sc3c2)ccn1")
"Low"
>>> cat("CNC(=O)c1cc(Oc2ccc3nc(NC(=O)Nc4ccc(Cl)cc4)sc3c2)ccn1")
"High"
>>> cat("CNC(=O)c1cc(Oc2ccc3nc(NC(=O)Nc4cc(C(F)(F)F)cc(C(F)(F)F)c4)sc3c2)ccn1")
"Low"

Kindly state the category for this compound: `CNC(=O)c1cc(Oc2ccc3nc(NC(=O)c4ccc5c(c4)OCCO5)sc3c2)ccn1` High

Kindly state the category for this compound: `CNC(=O)c1cc(Oc2ccc3nc(NC(=O)Nc4ccc(C(F)(F)F)cc4)sc3c2)ccn1` Mid

Kindly state the category for this compound: `CNC(=O)c1cc(Oc2ccc3nc(NC(=O)c4cccc(F)n4)sc3c2)ccn1` High

Kindly state the category for this compound: `CNC(=O)c1cc(Oc2ccc3nc(NC(=O)Nc4ccc(Cl)c(Cl)c4)sc3c2)ccn1` Low

Kindly state the category for this compound: `CNC(=O)c1cc(Oc2ccc3nc(NC(=O)c4ccc(Cl)c(C(F)(F)F)c4)sc3c2)ccn1` Mid

Kindly state the category for this compound: `CNC(=O)c1cc(Oc2ccc3nc(NC(=O)c4cc(C(F)(F)F)cc(C(F)(F)F)c4)sc3c2)ccn1` Mid

Kindly state the category for this compound: `CNC(=O)c1cc(Oc2ccc3nc(NC(=O)Nc4ccc(F)cc4F)sc3c2)ccn1` High

Kindly state the category for this compound: `CNC(=O)c1cc(Oc2ccc3nc(NC(=O)c4ccc5ncccc5c4)sc3c2)ccn1` High

----------
assay: Antiproliferative activity against human HL-60(TB) cells assessed as cell growth at 10^-7 M after 48 hrs by sulforhodamine B assay; type: functional; settings: HL-60, 48 h, read-out: Activity
observable: growth at 0.1 µM

Examples with answers:
>>> observed("CNC(=O)c1cc(Oc2ccc3nc(NC(=O)Nc4ccc(Cl)c(C(F)(F)F)c4)sc3c2)ccn1")
"110%"
>>> observed("CNC(=O)c1cc(Oc2ccc3nc(NC(=O)Nc4cc(C(F)(F)F)cc(C(F)(F)F)c4)sc3c2)ccn1")
"31%"

Requested field: growth at 0.1 µM. Item: `CNC(=O)c1cc(Oc2ccc3nc(NC(=O)Nc4ccc(Cl)c(Cl)c4)sc3c2)ccn1` 102%

Requested field: growth at 0.1 µM. Item: `CNC(=O)c1cc(Oc2ccc3nc(NC(=O)c4cc(C(F)(F)F)cc(C(F)(F)F)c4)sc3c2)ccn1` 97%

----------
assay: Antiproliferative activity against human SNB75 cells assessed as cell growth at 10^-4 M after 48 hrs by sulforhodamine B assay; type: functional; conditions: SNB-75, 48 h, read-out: Activity
observable: growth at 100 µM (%)
Give a bare numeral; the unit % is implied.

Examples with answers:
>>> observed("CNC(=O)c1cc(Oc2ccc3nc(NC(=O)c4cc(C(F)(F)F)cc(C(F)(F)F)c4)sc3c2)ccn1")
-51
>>> observed("CNC(=O)c1cc(Oc2ccc3nc(NC(=O)Nc4ccc(Cl)c(Cl)c4)sc3c2)ccn1")
-75
>>> observed("CNC(=O)c1cc(Oc2ccc3nc(NC(=O)Nc4ccc(Cl)c(C(F)(F)F)c4)sc3c2)ccn1")
-80

Let us move to another entry and its growth at 100 µM.
Requested field: growth at 100 µM. Item: `CNC(=O)c1cc(Oc2ccc3nc(NC(=O)Nc4cc(C(F)(F)F)cc(C(F)(F)F)c4)sc3c2)ccn1` -75

----------
experiment: Antiproliferative activity against human SF295 cells assessed as growth inhibition after 48 hrs by sulforhodamine B assay; type: functional; conditions: SF-295, 48 h, read-out: LC50 (the source's name)
observable: CC50
Write the numeric value and append its unit.

Requested field: CC50. Item: `CNC(=O)c1cc(Oc2ccc3nc(NC(=O)c4cc(C(F)(F)F)cc(C(F)(F)F)c4)sc3c2)ccn1` 49.6 µM

----------
system: M14; assay: Antiproliferative activity against human M14 cells assessed as growth inhibition after 48 hrs by sulforhodamine B assay; format: functional; conditions: M14, 48 h, read-out: LC50 (the source's name)
observable: CC50 (µM)
Give a bare numeral; the unit µM is implied.

>>> observed("CNC(=O)c1cc(Oc2ccc(NC(=O)Nc3ccc(Cl)c(C(F)(F)F)c3)cc2)ccn1")
25.1

Reported CC50 for M14, given `CNC(=O)c1cc(Oc2ccc3nc(NC(=O)Nc4cc(C(F)(F)F)cc(C(F)(F)F)c4)sc3c2)ccn1` ? 6.9

----------
The entries below are paired with their reported growth at 0.01 µM.
test system: NCI-H522; assay: Antiproliferative activity against human NCI-H522 cells assessed as cell growth at 10^-8 M after 48 hrs by sulforhodamine B assay; format: functional; conditions: NCI-H522, 48 h, read-out: Activity

>>> observed("CNC(=O)c1cc(Oc2ccc3nc(NC(=O)c4cc(C(F)(F)F)cc(C(F)(F)F)c4)sc3c2)ccn1")
"90%"
>>> observed("CNC(=O)c1cc(Oc2ccc3nc(NC(=O)Nc4cc(C(F)(F)F)cc(C(F)(F)F)c4)sc3c2)ccn1")
"95%"
>>> observed("CNC(=O)c1cc(Oc2ccc3nc(NC(=O)Nc4ccc(Cl)c(C(F)(F)F)c4)sc3c2)ccn1")
"98%"

Requested field: growth at 0.01 µM. Item: `CNC(=O)c1cc(Oc2ccc3nc(NC(=O)Nc4ccc(Cl)c(Cl)c4)sc3c2)ccn1` 98%

----------
test: Antiproliferative activity against human NCI-ADR-RES cells assessed as cell growth at 10^-5 M after 48 hrs by sulforhodamine B assay; type: functional; details: read-out: Activity
observable: growth at 10 µM (%)
Give a bare numeral; the unit % is implied.

Requested field: growth at 10 µM. Item: `CNC(=O)c1cc(Oc2ccc3nc(NC(=O)c4ccc(Cl)c(C(F)(F)F)c4)sc3c2)ccn1` 64.9

Requested field: growth at 10 µM. Item: `CNC(=O)c1cc(Oc2ccc3nc(NC(=O)c4cccc(F)n4)sc3c2)ccn1` 88.8

Requested field: growth at 10 µM. Item: `CNC(=O)c1cc(Oc2ccc3nc(NC(=O)Nc4ccc(C(F)(F)F)cc4)sc3c2)ccn1` 58.4

Requested field: growth at 10 µM. Item: `CNC(=O)c1cc(Oc2ccc3nc(NC(=O)Nc4ccc(Cl)c(Cl)c4)sc3c2)ccn1` -43

Requested field: growth at 10 µM. Item: `CNC(=O)c1cc(Oc2ccc3nc(NC(=O)c4ccc5ncccc5c4)sc3c2)ccn1` 88.8

Requested field: growth at 10 µM. Item: `CNC(=O)c1cc(Oc2ccc3nc(NC(=O)Nc4cc(C(F)(F)F)cc(C(F)(F)F)c4)sc3c2)ccn1` -62

Requested field: growth at 10 µM. Item: `CNC(=O)c1cc(Oc2ccc3nc(NC(=O)c4ccc5c(c4)OCCO5)sc3c2)ccn1` 95.8

Requested field: growth at 10 µM. Item: `CNC(=O)c1cc(Oc2ccc3nc(NC(=O)Nc4ccc(Cl)c(C(F)(F)F)c4)sc3c2)ccn1` -21
